experimentSummary: Humidity microbalance analysis (VTI), moisture sorption at 25° C.
Assay type: physicochemical
conditionSummary: variations in humidity
readoutLabel: hygroscopicity / moisture uptake in words

>>> resultvalue("O=C([O-])C[C@H]1CC[C@H](c2ccc(-c3ccc(Nc4ccc(C(F)(F)F)nc4)cn3)cc2)CC1.[Na+] [Modification O]")
"low hygroscopicity"
>>> resultvalue("O=C([O-])C[C@H]1CC[C@H](c2ccc(-c3ccc(Nc4ccc(C(F)(F)F)nc4)cn3)cc2)CC1.[Na+] [Modification N]")
"low hygroscopicity"
